Measured Activity, listed per entry for reference.
Test target: Melanocortin receptor 4 (Homo sapiens, UniProt P32245)
Sequence (P32245 whole entry): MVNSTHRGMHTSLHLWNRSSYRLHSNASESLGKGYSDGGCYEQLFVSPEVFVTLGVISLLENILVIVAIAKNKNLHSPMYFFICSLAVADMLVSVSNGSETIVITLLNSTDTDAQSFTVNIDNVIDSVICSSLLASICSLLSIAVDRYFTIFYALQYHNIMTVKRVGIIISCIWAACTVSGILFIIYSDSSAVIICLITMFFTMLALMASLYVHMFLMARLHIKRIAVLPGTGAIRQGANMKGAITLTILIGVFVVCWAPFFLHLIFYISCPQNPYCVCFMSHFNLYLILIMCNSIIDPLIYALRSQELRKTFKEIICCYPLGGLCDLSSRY
Protocol details: Agonist activity at human MC4 receptor expressed in CHO cells assessed as increase of alpha-MSH-induced cAMP accumulation at 10 uM relative to alpha-MSH
Type: functional, cell-based
Reply numerically in %, unit not repeated.

Could you share which Activity value was measured for CC(C)N(CC(C1CCCCC1)N1CCN(C(=O)[C@@H]2CN(C(C)(C)C)C[C@H]2c2ccc(F)cc2F)CC1)C(=O)c1cnn(C(C)C)c1 (single isomer, unassigned; diastereomer 2) ?
81

Same question for CC(C)N(CC(C1CCCCC1)N1CCN(C(=O)[C@@H]2CN(C(C)(C)C)C[C@H]2c2ccc(F)cc2F)CC1)C(=O)c1cccnn1 (single isomer, unassigned; diastereomer 1) please.
102

Same question for CC(=O)N(CC(CC(C)C)N1CCN(C(=O)[C@@H]2CN(C(C)(C)C)C[C@H]2c2ccc(F)cc2F)CC1)C(C)C (single isomer, unassigned; diastereomer 2) please.
113

Same question for CC(=O)N(CC(N1CCN(C(=O)[C@@H]2CN(C(C)(C)C)C[C@H]2c2ccc(F)cc2F)CC1)C(C)(C)C)C(C)C (single isomer, unassigned; diastereomer 1) please.
89

Same question for CC(C)N(CC(C1CCCCC1)N1CCN(C(=O)[C@@H]2CN(C(C)(C)C)C[C@H]2c2ccc(F)cc2F)CC1)S(C)(=O)=O (single isomer, unassigned; diastereomer 1) please.
114
